# EXPERIMENT_SUMMARY: Half life in rat plasma after 30 mins
# Assay type: ADME, cell-free
OBSERVED_PROPERTY: half-life
Show the value, then the unit it is measured in.

Field request: half-life | item: `COc1ccc2[nH]cc(CCNC(C)=O)c2c1`
15 min

Just for reference, ChEMBL document CHEMBL3228039 is where these values come from.
